Recorded Trimeric HA Binding RLU values for a group of binders are listed next.
target: recombinant soluble homotrimeric HA of A/Japan/305/57 (H2N2) (Influenza A virus A/Japan/305/1957 (H2N2)); test: HA microarray, BCC supernatant; settings: remark: other sources report otherwise
quantity kind: Trimeric HA Binding RLU

>>> data_value("TCN-537 (3194_D21) (antibody, V domains shown) VH: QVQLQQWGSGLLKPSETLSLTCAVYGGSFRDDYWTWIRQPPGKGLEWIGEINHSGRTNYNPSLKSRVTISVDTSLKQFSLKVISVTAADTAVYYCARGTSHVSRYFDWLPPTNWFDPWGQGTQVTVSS VL: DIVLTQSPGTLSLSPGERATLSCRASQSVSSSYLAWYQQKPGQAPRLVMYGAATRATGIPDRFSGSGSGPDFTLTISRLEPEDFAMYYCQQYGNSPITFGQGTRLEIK")
"44700 RLU"
>>> data_value("TCN-521 (3280_D18) (antibody, V domains shown) VH: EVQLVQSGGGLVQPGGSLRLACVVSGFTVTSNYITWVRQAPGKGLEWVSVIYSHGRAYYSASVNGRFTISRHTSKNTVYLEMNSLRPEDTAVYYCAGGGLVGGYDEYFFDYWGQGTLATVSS VL: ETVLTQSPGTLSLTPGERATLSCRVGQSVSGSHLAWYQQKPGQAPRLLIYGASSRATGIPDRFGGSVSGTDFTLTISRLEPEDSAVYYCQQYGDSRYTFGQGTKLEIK")
"6730 RLU"
>>> data_value("TCN-552 (5249_I23) (antibody, V domains shown) VH: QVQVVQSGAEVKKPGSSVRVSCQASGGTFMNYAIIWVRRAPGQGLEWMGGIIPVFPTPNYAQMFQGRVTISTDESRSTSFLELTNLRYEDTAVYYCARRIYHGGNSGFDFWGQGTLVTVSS VL: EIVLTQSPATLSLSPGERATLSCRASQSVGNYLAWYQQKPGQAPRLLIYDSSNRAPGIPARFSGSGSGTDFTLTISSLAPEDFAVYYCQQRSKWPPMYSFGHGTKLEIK")
"23800 RLU"
